Numbers sourced from paper PMC3038857.

Test system: CYP1A2
Assay: CLZD_CYP1A2: Change in expression of CYP1A2 (primary human hepatocytes)
Type: cell-based
Conditions: 24 hr
Procedure: This is a collection of multiplexed gene expression assays focused on Phase I and II xenobiotic metabolizing enzymes and transporters. Human primary cell cultures were treated with chemicals at 5 concentrations (0.004-40 [drawing 42] M) for 6, 24 and 48 hr. Concentration- and time-response profiles of chemicals were measured by the expression of key nuclear receptor target genes, activities of CYP1A enzymes (EROD), and cell morphology. […]
measure_name: CLZD_CYP1A2_24
Reply with just the number.

- molecule: "Cc1cc(C)nc(Nc2ccccc2)n1"
  value_observed: 4.839
- molecule: "CCc1ccc(C(=O)NN(C(=O)c2cc(C)cc(C)c2)C(C)(C)C)cc1"
  value_observed: 4.896
- molecule: "COc1cccc(C(=O)NN(C(=O)c2cc(C)cc(C)c2)C(C)(C)C)c1C"
  value_observed: 4.924
- molecule: "CCCCC(CC)CN1C(=O)C2C3C=CC(C3)C2C1=O (stereo not shown)"
  value_observed: 5.284
- molecule: "C#CCOS(=O)OC1CCCCC1Oc1ccc(C(C)(C)C)cc1 (stereo not shown)"
  value_observed: 5.07
- molecule: "CCNc1nc(Cl)nc(NCC)n1"
  value_observed: 5.016

In plain terms, `C#CCC1=C(C)[C@H](OC(=O)[C@H]2[C@H](C=C(C)C)C2(C)C)CC1=O` has a documented CLZD_CYP1A2_24 of 5.3

====

Overview of reported ATG_PXRE_CIS across a group of compounds:
molecular target: PXR (NR1I2) (Homo sapiens, UniProt O75469); experiment: ATG_PXRE_CIS: Factorial reporter gene assay (HepG2); assay type: cell-based; set-up: endogenous in cells; host or cells: HepG2; settings: HepG2
Sequence (O75469 whole entry): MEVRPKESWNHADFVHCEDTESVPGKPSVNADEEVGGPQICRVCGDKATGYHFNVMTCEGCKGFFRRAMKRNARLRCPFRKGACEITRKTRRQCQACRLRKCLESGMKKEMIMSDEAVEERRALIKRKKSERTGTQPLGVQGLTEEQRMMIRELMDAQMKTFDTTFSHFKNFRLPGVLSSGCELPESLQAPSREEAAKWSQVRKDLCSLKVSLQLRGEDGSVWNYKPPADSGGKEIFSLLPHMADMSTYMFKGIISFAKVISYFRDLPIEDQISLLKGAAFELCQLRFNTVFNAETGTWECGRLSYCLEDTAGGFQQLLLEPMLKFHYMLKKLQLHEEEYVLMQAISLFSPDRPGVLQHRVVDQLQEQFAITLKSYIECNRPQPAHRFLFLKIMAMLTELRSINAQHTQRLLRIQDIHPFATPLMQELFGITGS
Reply with just the number.

Check out these entries, answers already filled in.
- compound: "CCCCC(C#N)(Cn1cncn1)c1ccc(Cl)cc1 (centres unmarked)"
  ATG_PXRE_CIS: 4.886
- compound: "CCC(CC)Nc1c([N+](=O)[O-])cc(C)c(C)c1[N+](=O)[O-]"
  ATG_PXRE_CIS: 4.959
- compound: "CCCC1COC(Cn2cncn2)(c2ccc(Cl)cc2Cl)O1 (centres unmarked)"
  ATG_PXRE_CIS: 5.041

In plain terms, `COc1ccc(C(c2ccc(OC)cc2)C(Cl)(Cl)Cl)cc1` has a documented ATG_PXRE_CIS of 5.036

In plain terms, CC1(C)C(C=C(Cl)Cl)C1C(=O)OCc1cccc(Oc2ccccc2)c1 (centres unmarked) has a documented ATG_PXRE_CIS of 4.959

====

Overview of reported ATG_PXR_TRANS across a group of molecules:
target: PXR (NR1I2) (Homo sapiens); experiment: ATG_PXR_TRANS: Factorial reporter gene assay (HepG2); assay type: cell-based; parameters: endogenous in cells; host or cells: HepG2; settings: HepG2; scale not given, looks like -log10 of molar active concentration; 0 = no activity
Reply with just the number.

- molecule: "C=CCOC(=O)C(C)(C)OC(=O)c1cc(-n2c(=O)cc(C(F)(F)F)n(C)c2=O)ccc1Cl"
  ATG_PXR_TRANS: 0
- molecule: "N#Cc1cc(Br)c(O)c(Br)c1"
  ATG_PXR_TRANS: 0
- molecule: "CCC(C)n1c(=O)[nH]c(C)c(Br)c1=O (stereo not shown)"
  ATG_PXR_TRANS: 0
- molecule: "COC(=O)c1ccccc1CS(=O)(=O)NC(=O)Nc1nc(OC)cc(OC)n1"
  ATG_PXR_TRANS: 0
- molecule: "N#Cc1c(Cl)c(Cl)c(Cl)c(C#N)c1Cl"
  ATG_PXR_TRANS: 6.658
- molecule: "Nc1cnn(-c2ccccc2)c(=O)c1Cl"
  ATG_PXR_TRANS: 0
- molecule: "COc1nc(C)nc(NC(=O)NS(=O)(=O)c2ccccc2Cl)n1 [r63]"
  ATG_PXR_TRANS: 0
- molecule: "COc1nc(C)nc(NC(=O)NS(=O)(=O)c2ccccc2Cl)n1 [r62]"
  ATG_PXR_TRANS: 0

ATG_PXR_TRANS of `OB(O)O` , assay on PXR (NR1I2) (Homo sapiens), is 0
